molecular target: T1, hK1 (human tissue kallikrein 1), recombinant (human, UniProt P06870 25-262); assay: SPR
T1 construct: Expressed in P. pastoris from KLK1 cDNA and purified; enzymatically active; also called KLK1; Recombinant (Pichia) Kallikrein
Each entry falls into one class according to its kon; the ranges are low: < 400000 M⁻¹ s⁻¹; intermediate: ≥ 400000 M⁻¹ s⁻¹ and < 500000 M⁻¹ s⁻¹; high: ≥ 500000 M⁻¹ s⁻¹

binder	classAssignment
M0095-G09 (Fab, V domains shown) VH: EVQLLESGGGLVQPGGSLRLSCAASGFTFSNYNMHWVRQAPGKGLEWVSVIYPSGGYTVYADSVKGRFTISRDNSKNTLYLQMNSLRAEDTAVYYCARRGNWGGIDYWGQGTLVTVSS VL: DIQMTQSPSSLSASVGDRVTITCRASQSISNWLAWYQQKPGKAPKLLIYKASTLQTGVPSRFSGSGSGTEFSLTISSLQPDDFATYYCQQTYSAPFNFGPGTKVDIKR	high
M0131-C08 (Fab, V domains shown) VH: EVQLLESGGGLVQPGGSLRLSCAASGFTFSWYSMTWVRQAPGKGLEWVSSISPSGGATKYADSVKGRFTISRDNSKNTLYLQMNSLRAEDTAVYYCARGGAASLPFDYWGQGTLVTVSS VL: DIQMTQSPSSVSASVGDRVTITCRASQDVLVSFAWYQQRPGTAPKLLIYAASHLHPGVPSRFSASGSGTDFTLTINGLQPEDFATYYCQQARSFPHTFGQGTRLEKKR	low
M0139-A09 (Fab, V domains shown) VH: EVQLLESGGGLVQPGGSLRLSCAASGFTFSWYFMVWVRQAPGKGLEWVSGIGPSGGLTTYADSVKGRFTISRDNSKNTLYLQMNSLRAEDTAVYYCARSDWLNYWGQGTLVTVSS VL: DIVMTQTPPSLPVNPGEPASISCRSSQSLVYSDGNTYLNWFQQRPGQSPRRLIYKVSNRDSGVPDRFSGSGSGTDFTLKISRVEAEDVGVYYCMQGTHWQRLTFGGGTKVEIKR	low
M0118-E07 (Fab, V domains shown) VH: EVQLLESGGGLVQPGGSLRLSCAASGFTFSHYPMDWVRQAPGKGLEWVSRIYPSGGATKYADSVKGRFTISRDNSKNTLYLQMNSLRAEDTATYYCARGGGAFDIWGQGTMVTVSS VL: DIQMTQSPSSLSASVGDRVTITCRASQGISNYLAWYQQKPGKVPKLLIYAASTLQSGVPSRFSGSGSGTDFTLTISSLQPEDVATYYCQKYNSAPLTFGGGTKVEIKR	high
M0138-E02 (Fab, V domains shown) VH: EVQLLESGGGLVQPGGSLRLSCAASGFTFSHYMMHWVRQAPGKGLEWVSGIGPSGGKTPYADSVKGRFTISRDNSKNTLYLQMNSLRAEDTAVYYCARVGVWYGMDVWGQGTTVTVSS VL: DIQMTQSPSSVSASVGDRVTITCRASQGISSWLVWYQQKPGKAPKLLIYAASSLQSGVPSRFSGSGSGTDFTLTISSLQPEDFATYYCQQAKTFPLTFGGGTKVEIKR	high

Then there is this binder:
Query block: Class label required: M0117-B07 (Fab, V domains shown) VH: EVQLLESGGGLVQPGGSLRLSCAASGFTFSHYTMWWVRQAPGKGLEWVSRIWPSGGTTRYADSVKGRFTISRDNSKNTLYLQMNSLRAEDTAVYYCARGGSYLAFDIWGQGTMVTVSS VL: DIQMTQSPATLSLSPGERATLSCRASQSVSSYLAWYQQKPGQAPRLLIYDASNRATGIPARFSGSGSGTDFTLTISSLEPEDFAVYYCQQRSNFGGGTKVEIKR
Result block: low
